# assayed system: aldose reductase (Bos taurus, UniProt P16116)
# Construct: the preparation of the enzyme from bovine lens; from tissue; host or cells: bovine lens
# method description: in vitro aldose reductase inhibition (modified Hayman and Kinoshita procedure)
# Assay type: biochemical, bovine
# condition info: 10^-7 molar; read-out: % Inhibition at Different Molar Concentration (in vitro), 10^-7
readout kind: inhibition at 0.1 µM (%)

Worked cases, answers included:
{"molecule": "CN(CC(=O)O)C(=S)c1cccc2cccc(Br)c12", "assayed system": "aldose reductase (Bos taurus, UniProt P16116)", "recorded result": 24}
{"molecule": "CN(CC(=O)O)C(=S)c1ccc(Br)c2ccccc12", "assayed system": "aldose reductase (Bos taurus, UniProt P16116)", "recorded result": 32}
{"molecule": "COc1cccc2c(C(=S)N(C)CC(=O)O)cccc12", "assayed system": "aldose reductase (Bos taurus, UniProt P16116)", "recorded result": 17}
{"molecule": "COc1ccc2c(C(=S)N(C)CC(=O)O)cccc2c1C#N", "assayed system": "aldose reductase (Bos taurus, UniProt P16116)", "recorded result": 74}
{"molecule": "CN(CC(=O)O)C(=S)c1cccc2c(C(F)(F)F)cccc12 [Example 53b]", "assayed system": "aldose reductase (Bos taurus, UniProt P16116)", "recorded result": 33}
{"molecule": "CCCCN(CC(=O)O)C(=S)c1cccc2c(Br)cccc12", "assayed system": "aldose reductase (Bos taurus, UniProt P16116)", "recorded result": 19}
{"molecule": "CN(CC(=O)O)C(=S)c1ccc(Cl)c2ccccc12", "assayed system": "aldose reductase (Bos taurus, UniProt P16116)", "recorded result": 25}
{"molecule": "CN(CC(=O)O)C(=S)c1cccc2c([N+](=O)[O-])cccc12", "assayed system": "aldose reductase (Bos taurus, UniProt P16116)", "recorded result": 43}

A = CN(CC(=O)O)C(=S)c1cccc2c(C#N)cccc12
B = Cc1ccc2c(C(=S)N(C)CC(=O)O)cccc2c1Br
[ask] Hey, between A and B which has a smaller measured inhibition at 0.1 µM? Select an item and report its label.
[reply] A

P = Cc1cccc2c(C(=S)N(C)CC(=O)O)cccc12
Q = COCCCOc1ccc2c(C(=S)N(C)CC(=O)O)cccc2c1Br
[ask] Hey, between P and Q which has a smaller measured inhibition at 0.1 µM? Select an item and report its label.
[reply] P

A = COc1c(Cl)cc(C(=S)N(C)CC(=O)O)c2ccccc12
B = COc1ccc2c(C(=S)N(C)CC(=O)O)cccc2c1I
[ask] Hey, between A and B which has a smaller measured inhibition at 0.1 µM? Select an item and report its label.
[reply] A
(A: 33%, B: 72%)

I = CC(C)c1cccc2c(C(=S)N(C)CC(=O)O)cccc12
II = CN(CC(=O)O)C(=S)c1cccc2c(Br)cccc12
[ask] # argmax over inhibition at 0.1 µM for candidates I and II Select an item and report its label.
[reply] II
(II: 47%, I: 21%)

Numbers sourced from patent US4568693A.
